Values from patent US7585895B2

- Target Or Test System: hEP4/Gqs5 (Homo sapiens)
- Construct: expressed in transfected cells
- Sequence (P35408 whole entry): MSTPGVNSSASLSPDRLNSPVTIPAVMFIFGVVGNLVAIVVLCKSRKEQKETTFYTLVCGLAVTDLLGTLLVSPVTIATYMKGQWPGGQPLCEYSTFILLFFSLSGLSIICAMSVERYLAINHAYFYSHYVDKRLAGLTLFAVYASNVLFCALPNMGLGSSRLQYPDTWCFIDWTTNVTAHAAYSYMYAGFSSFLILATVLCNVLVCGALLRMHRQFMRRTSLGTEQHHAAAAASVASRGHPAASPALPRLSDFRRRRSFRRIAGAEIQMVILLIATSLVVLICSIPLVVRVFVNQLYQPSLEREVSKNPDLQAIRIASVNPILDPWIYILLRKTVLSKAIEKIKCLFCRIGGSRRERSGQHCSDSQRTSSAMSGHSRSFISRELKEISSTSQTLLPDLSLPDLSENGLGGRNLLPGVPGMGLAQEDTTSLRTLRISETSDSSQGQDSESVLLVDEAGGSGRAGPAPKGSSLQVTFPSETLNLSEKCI
- Procedure Text: FLIPR calcium signal, EP4
- Format: cell-based
- Condition Description: HEK-293(EBNA), read-out: Ca2+ Signal-EC50 (nM) EP4

Molecule: CCCCCC(O)c1ccc([C@@H]2[C@@H](C/C=C\CCCC(=O)O)[C@H](Cl)C[C@H]2O)cc1 (mixture of isomers) [Entry 11]
EC50: > 10000 nM
--
Molecule: CC(C)(C)CCCC(O)c1ccc([C@@H]2[C@@H](C/C=C\CCCC(=O)O)[C@H](Cl)C[C@H]2O)cc1 (stereo partly drawn)
EC50: > 10000 nM
--
Molecule: CCCC1(C(O)c2cccc([C@@H]3[C@@H](Cc4cccc(CCC(=O)O)c4)[C@H](Cl)C[C@H]3O)c2)CCC1 (stereo partly drawn)
EC50: > 10000 nM
--
Molecule: CCCCCC(O)c1ccc([C@@H]2[C@@H](C/C=C\CCCC(=O)O)[C@@H](Cl)C[C@H]2O)cc1 (stereo partly drawn)
EC50: 947 nM
--
Molecule: CCCCCC(O)c1ccc([C@@H]2[C@@H](CCCCCCC(=O)O)[C@H](Cl)C[C@H]2O)cc1 (stereo partly drawn)
EC50: > 10000 nM
--
Molecule: CCCCCCc1ccc([C@@H]2[C@@H](C/C=C\CCCC(=O)O)[C@H](Cl)C[C@H]2O)cc1
EC50: > 10000 nM
--
Molecule: O=C(O)CCCCCC[C@@H]1[C@@H](c2ccc(C(O)Cc3ccccc3)cc2)[C@H](O)C[C@H]1Cl (stereo partly drawn)
EC50: 15800 nM
--
Molecule: O=C(O)CCCCCC[C@@H]1[C@@H](c2ccc(C(O)CC3CCCCC3)cc2)[C@H](O)C[C@H]1Cl (stereo partly drawn)
EC50: > 10000 nM
--
Molecule: O=C(O)CCC/C=C\C[C@@H]1[C@@H](c2ccc(C(O)CCc3ccccc3)cc2)[C@H](O)C[C@H]1Cl (stereo partly drawn)
EC50: > 10000 nM
--
Molecule: O=C(O)CCC/C=C\C[C@@H]1[C@@H](c2ccc(C(O)Cc3ccccc3)cc2)[C@H](O)C[C@H]1Cl (mixture of isomers)
EC50: > 10000 nM
--
Molecule: CCCCCC(O)c1ccc([C@@H]2[C@@H](CCCc3ncc(C(=O)O)s3)[C@H](Cl)C[C@H]2O)cc1 (stereo partly drawn)
EC50: > 10000 nM
--
Molecule: CCCCCC(O)c1ccc([C@@H]2[C@@H](C/C=C\CCCC(=O)O)[C@H](Cl)C[C@H]2O)cc1 (single isomer, unassigned) [Entry 12]
EC50: > 10000 nM
--
Molecule: O=C(O)CCCCCC[C@@H]1[C@@H](c2ccc(C(O)CCc3ccccc3)cc2)[C@H](O)C[C@H]1Cl (stereo partly drawn)
EC50: > 10000 nM
--
Molecule: CCCCCC(O)c1ccc([C@@H]2[C@@H](C/C=C\CCCC(=O)O)[C@H](Cl)C[C@H]2O)cc1 (single isomer, unassigned) [Entry 13]
EC50: > 10000 nM
--
Molecule: CC(C)(C)CCCC(O)c1ccc([C@@H]2[C@@H](CCCCCCC(=O)O)[C@H](Cl)C[C@H]2O)cc1 (mixture of isomers)
EC50: 10700 nM
